src = the EternaBench riboswitch data

# System: MS2 coat protein
# assay.comment: apparent Kd, MS2 coat protein; higher = weaker binding; RNA-MaP array; tryptophan 2.4 mM where present
# details: ligand present: tryptophan; designed as: ON switch for tryptophan
Class key for apparent Kd values: L: < 10 nM; M: ≥ 10 nM and < 60 nM; H: ≥ 60 nM

Which class does `CGAAUAUAGACGGCCGCCACUCUACAAACAUGAGGAUCACCCAUGUUCACAUAGUGGAAACACAUGAGGACCGGGUCAUAGGCUU` fall in?
M

Which class does `AAUACCGGAUCGGCCGCCACUGGUUGGCCCUGUGUACAUGAGGAUCACCCAUGUCCAUCCCAGACCAGGACCGGGAUCUUUGUGU` fall in?
M

Which class does `CACGAAAGAUCGGCCGCCACUCAUGUUUCUUACAUGAGGAUCACCCAUGUAUUUUCUUUCUUUUAGAGGACCGGGAUUGAGCGUG` fall in?
M

Which class does `GGGUGGUAGGCGGCCGCCACUGAUUUUCAUUCCUGGAUGACAUGAGGAUCACCCAUGUUUACGGGCAGGACCGGGCCUGCUGUGG` fall in?
M

Which class does `UUAAUUAUUGAAUCGUAUUGGUAUUAAGAACGAGGACCGGUACGGCCGCCACUCGUGAUAUACAUGAGGAUCACCCAUGUUAGCA` fall in?
M

----------
# Tested on: MS2 coat protein
# assay.comment: apparent Kd, MS2 coat protein; higher = weaker binding; RNA-MaP array; theophylline 2 mM where present
# details: ligand present: theophylline; designed as: OFF switch for theophylline
Reported apparent Kd values for the following sequences.
Form entry: value (nM) — number only.

Known apparent Kd results, listed for orientation:
- seq.text: "AACAUACAUGAGGAUCACCCAUGUCACGAUACCAGAUACAUGAGGAUCCCUUGGCAGCGUCAUGAGGAUCACCCAUGUUGUACAU"
  apparent Kd (nM): 58.3
- seq.text: "AGCAGUACAACAGAUACCAGACUUUUAAUGCCUCUAAUUACAUGAGGAUCACCCAUGUUUGUCCCUUGGCAGCUGUUGUACUGCA"
  apparent Kd (nM): 211

Entry `GAUGAACUAUGUGAUACCAGACAACAUGAGGAUCACCCAUGUGCGCGUCGUCCUCUGCCUGUCCCUUGGCAGCGUAUAGUUUAUC` , system MS2 coat protein: what apparent Kd was measured?
124

----------
Reported apparent Kd values for the following sequences.
# Test system: MS2 coat protein
# assay.comment: apparent Kd, MS2 coat protein; higher = weaker binding; RNA-MaP array
# details: designed as: ON switch for flavin mononucleotide; no ligand

Known apparent Kd results, listed for orientation:
- seq.text: "AAUUGUCGAGCAGGAUAUAGCUGACAGGAUAUUCAACUAACGACAUGAGGAUCACCCAUGUGUGGCUAGAAGGGCUUCAAGGCA"
  apparent Kd: "0.0152 µM"
- seq.text: "CCUUCCUAGUGAGGAUAUCGGCUUGGACUCGAGCGAGAAGGCACCUAAUCGAAGAACUUUUAUCCACAUGAGGAUCACCCAUGU"
  apparent Kd: "0.0118 µM"
- seq.text: "UGAAACUAGCCUAAGGAUAUAUAAGUGUGAACAUGAGGAUCACCCAUGUAUGGGAACAAGUGCUGAUAGAAGGUAGGAAUCUCCAA"
  apparent Kd: "0.0803 µM"
- seq.text: "AAGGGCGACGGACAGGAUAUAGUUAUUGUUACAUGAGGAUCACCCAUGUCUCCAGGUCUUUGACGCUAGAAGGGUCCCUCCUCGAC"
  apparent Kd: "0.0612 µM"
- seq.text: "GCAGAUACCAUGAGUCGACAUGAGGAUCACCCAUGUACUCCCAGAAGGAUGUACUUUGUUCAAGCAUAGGAUAUGGGCCGAACC"
  apparent Kd: "0.114 µM"
- seq.text: "AGCUAUUCGGGUAAGGAUAUCGAUGUUGUUACAUGAGGAUCACCCAUGUUGCUCGACAUCAGUGACGAGAAGGUACAGCGUGGUAU"
  apparent Kd: "0.00889 µM"

Now look at this entry.
Look up apparent Kd: `CUCACCUCGUGGAAGGAUAUACACUUUAGCACAUGAGGAUCACCCAUGUCCGCCGCAAAUCCUAGGUAGAAGGUCCGCAACAUUCG`
0.0235 µM

----------
Reported apparent Kd values for the following sequences.
# System: MS2 coat protein
# assay.comment: apparent Kd, MS2 coat protein; higher = weaker binding; RNA-MaP array; FMN 200 µM where present
# details: designed as: OFF switch for flavin mononucleotide; no ligand
Form entry: value (nM) — number only.

Known apparent Kd results, listed for orientation:
- seq.text: "GGAUAGGACAGAGGAUAUACGUGCUAGAGAUACUAGCUACAAAUCCUUACAUGAGGAUCACCCAUGUAGAAGGCUGUCCUAUCG"
  apparent Kd [nM]: 19.3
- seq.text: "GUCAGCUCGUGAGGAUAUACAACACUGCUUCGGCAGUGUAUUAAAAUCACAUGAGGAUCACCCAUGUAGAAGGCACGAGCUGAU"
  apparent Kd [nM]: 5.04
- seq.text: "GCGUCGAGUGUGAGGAUAUGCUGGUCCUUGGAUCAGCAGAAGGCACAUGAGGAUCACCCAUGUGAAUACGAUGC"
  apparent Kd [nM]: 21.7

Entry `GAUCGUUCUGUUAGGAUAUGCUUUGGGCUUCCGCAGUAGAAGGAACAUGAGGAUCACCCAUGUCCGAUGCCGUC` , system MS2 coat protein: what apparent Kd was measured?
25.6

Entry `GUGAGGUCAGGAUAUGCAUGGCGGGACUUGCGUCGUGGCGUGGAGAAGGGACAUGAGGAUCACCCAUGUGGAGC` , system MS2 coat protein: what apparent Kd was measured?
55.6

Entry `UGGUUUGGGCUAGAUGCACAGACAUGAGGAUCACCCAUGUCUGAGGAUAUGCGUCAACAUAGGCAGCAGAAGGCAGACAUUCGC` , system MS2 coat protein: what apparent Kd was measured?
16.8

Entry `AAGAAGGACGCAGGAUAUCCAGGACCUCCCGCAGGAGAAGGGCGAAACAUGAGGAUCACCCAUACAUGAGGAUCACCCAUGUAA` , system MS2 coat protein: what apparent Kd was measured?
33

Entry `GGGCUGGGAGGAUAUUCAUUGGGAAACAUGAGGAUCACCCAUGUGAUAUAAGGGAAAUCCGGAGAAGGCUCGGUUC` , system MS2 coat protein: what apparent Kd was measured?
18.1

Entry `UUUAUAAAGGUAGGAUAUUGUAUUAUAAUUAAAUAAGAAGGAUCUCACAUGAGGAUCACCCAUGUAAGAGGAUCACCCAUGUAU` , system MS2 coat protein: what apparent Kd was measured?
8.68

Entry `UGAGCAUGAGGAUAUACUUGGCGACCGUGAGGUCGAGGUUUACAUGAGGAUCACCCAUGUAGAAGGCAUGUUCU` , system MS2 coat protein: what apparent Kd was measured?
18.7

Entry `AGUGUUGGAGGAUAUACAUGAGGAUCACCCAUGUACAUCACACAGUAUAUCAAACCAUGUAGAAGGCCAAUACA` , system MS2 coat protein: what apparent Kd was measured?
18.2

Entry `UGGUUGUGUGUCAGGAUAUGGUCUGGUGUUUCGGGCUAGAAGGGACAUGAGGAUCACCCAUGUGGCUGGUGCGC` , system MS2 coat protein: what apparent Kd was measured?
149

Entry `AUAAUGAGAGGAUAUACAUGAGGAUCACCCAUGUUAUUAUCACGGCGAGCUCCAUUACGUAGAAGGCUCAUUUA` , system MS2 coat protein: what apparent Kd was measured?
16.5

Entry `CGGGAGUCAGGAUAUACGAACAUGUCGCCAGAUGUCAAGGUACAUGAGGAUCACCCAUGUAGAAGGGAGGAGAA` , system MS2 coat protein: what apparent Kd was measured?
91

Entry `AAGUAUGGAGGAUAUACAUGGAUAUACAUUCAUGUGGACCUACAUGAGGAUCACCCAUGUAGAAGGCCAUAAUA` , system MS2 coat protein: what apparent Kd was measured?
30.7

Entry `AAUAUGUUGCAGAAGGUUAUUUUUAUAACGAUCCAUUUGACAUGAGGAUCACCCAUGUAAUUGAUGAAGGAUAUGCAAUAUAUU` , system MS2 coat protein: what apparent Kd was measured?
6.42

Entry `GGAUAGGACAGAGGAUAUACAUGCUAGAGAUACUAGCAAAAUUUCCUCACAUGAGGAUCACCCAUGUAGAAGGCUGUCCUAUCG` , system MS2 coat protein: what apparent Kd was measured?
28.5

Entry `GCCGUAAGUGUGAGGAUAUACCUAUGGAAACAUAGGUAGAAGGCACAUGAGGAUCACCCAUGUUCUUAAUCGGC` , system MS2 coat protein: what apparent Kd was measured?
134

Entry `UGGGCUUUAGGAUAUGCGUGUUGUAGUCGGCGAUGUGGUUCACAUGAGGAUCACCCAUGUAGAAGGAGGGUUUA` , system MS2 coat protein: what apparent Kd was measured?
139

Entry `CUUAUGUGAGGAUAUCAGUAGUAAAAAAAUAAAAUUACUACUGAGAAGGCACAUGAGGAUCACCCAUGUUCCUC` , system MS2 coat protein: what apparent Kd was measured?
115
